system: cynomolgus monkey complement component C3 (cynomolgus monkey, UniProt P01024 24-1663 (human entry))
Sequence (P01024 other isoform, or with tags, fused parts or gaps): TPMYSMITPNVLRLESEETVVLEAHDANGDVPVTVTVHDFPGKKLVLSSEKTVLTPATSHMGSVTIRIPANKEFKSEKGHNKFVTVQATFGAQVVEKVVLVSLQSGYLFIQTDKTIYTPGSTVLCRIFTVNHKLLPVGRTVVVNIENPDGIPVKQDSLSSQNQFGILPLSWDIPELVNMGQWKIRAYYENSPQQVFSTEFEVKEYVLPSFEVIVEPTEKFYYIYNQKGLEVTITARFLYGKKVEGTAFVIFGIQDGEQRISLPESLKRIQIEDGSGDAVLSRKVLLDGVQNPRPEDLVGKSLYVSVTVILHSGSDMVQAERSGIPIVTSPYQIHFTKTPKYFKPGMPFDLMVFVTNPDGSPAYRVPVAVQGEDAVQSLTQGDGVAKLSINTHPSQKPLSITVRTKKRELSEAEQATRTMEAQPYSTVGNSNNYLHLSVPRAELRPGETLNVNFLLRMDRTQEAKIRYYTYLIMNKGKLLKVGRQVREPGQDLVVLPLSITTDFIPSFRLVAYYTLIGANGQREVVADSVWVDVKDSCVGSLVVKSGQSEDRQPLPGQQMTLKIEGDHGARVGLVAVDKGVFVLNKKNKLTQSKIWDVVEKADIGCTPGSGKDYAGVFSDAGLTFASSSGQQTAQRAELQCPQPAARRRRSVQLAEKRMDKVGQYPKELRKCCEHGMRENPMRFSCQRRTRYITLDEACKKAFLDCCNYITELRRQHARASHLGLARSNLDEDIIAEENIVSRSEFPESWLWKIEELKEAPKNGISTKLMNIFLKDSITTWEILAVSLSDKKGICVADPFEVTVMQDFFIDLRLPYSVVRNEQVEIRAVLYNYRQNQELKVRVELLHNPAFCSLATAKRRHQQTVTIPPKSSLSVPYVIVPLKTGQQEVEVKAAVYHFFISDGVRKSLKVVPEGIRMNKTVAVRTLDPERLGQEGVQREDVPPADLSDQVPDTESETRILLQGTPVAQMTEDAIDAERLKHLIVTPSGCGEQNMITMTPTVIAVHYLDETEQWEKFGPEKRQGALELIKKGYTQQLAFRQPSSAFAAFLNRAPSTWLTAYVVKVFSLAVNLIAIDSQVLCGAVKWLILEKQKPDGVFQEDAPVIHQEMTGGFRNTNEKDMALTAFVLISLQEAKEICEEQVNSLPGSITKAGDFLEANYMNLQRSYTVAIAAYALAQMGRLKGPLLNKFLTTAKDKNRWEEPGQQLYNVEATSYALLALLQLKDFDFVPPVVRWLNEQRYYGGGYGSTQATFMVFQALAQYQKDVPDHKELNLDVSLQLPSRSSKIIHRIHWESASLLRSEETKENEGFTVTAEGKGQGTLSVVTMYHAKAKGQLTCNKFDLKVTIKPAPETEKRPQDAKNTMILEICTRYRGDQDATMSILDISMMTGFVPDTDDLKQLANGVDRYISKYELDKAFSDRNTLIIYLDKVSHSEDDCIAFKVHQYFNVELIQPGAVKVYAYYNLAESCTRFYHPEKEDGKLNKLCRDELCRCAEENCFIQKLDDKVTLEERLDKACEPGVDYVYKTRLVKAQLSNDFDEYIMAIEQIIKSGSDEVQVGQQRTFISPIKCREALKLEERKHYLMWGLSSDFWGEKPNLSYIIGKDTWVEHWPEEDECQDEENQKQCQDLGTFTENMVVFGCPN
protocol_details: cell-based or functional assay
observation_type: Hemolytic Assay IC50, Cyno AP

{"columns": ["binder", "observation_type", "meas_value"],
 "data": [
  ["antibody 38G10 (antibody, V domains shown, Mouse hybridoma antibody; Parent of Hz38G10; also called parental 38G10 antibody) VH: EVQLQQSGPELVKPGDSVKMSCKASGYTFTDFYMDWVKQSHGKSLEWIGYIYPHNGGTTYNQNFTGKATLTVDKSSNTAYMELHSLTSEDSAVYYCARRGGFDFDYWGQGTTLTVSS VL: NIVMTQSPKSMSLSVGERVTLRCKASENVDTYVSWYQQKPEQSPKLLIYGASNRYTGVPDRFTGSGSATEFTLTISSVQAEDLVGYHCGQSHSYPLTFGAGTKLELK", "Hemolytic Assay IC50, Cyno AP", "3.5 nM"]
]}
